I'd be grateful if you could share measured IC50 for these entries.
# study.system: CaV3.1 (Homo sapiens)
# Construct: expressed in transfected cells; host or cells: unnamed doxycycline-inducible cell line
# method.summary: High-throughput CaV3.1 T-type FLIPR fluorescent assay
# Assay type: cell-based
# measurement.parameters: Table 4; Fluo-4 FLIPR
Just the number in nM, nothing appended.

Can you look up the measured IC50 of COc1cc(C(=O)NCc2ccc(S(=O)(=O)c3cccc(C(F)(F)F)c3)cc2)cc(Cl)n1 for me?
2380

Can you look up the measured IC50 of O=C(NCc1ccc(S(=O)(=O)c2cccc(C(F)(F)F)c2)cn1)c1cc(F)cc(Cl)c1 for me?
1580

Can you look up the measured IC50 of CS(=O)(=O)c1cc(C(F)(F)F)ccc1C(=O)NCc1ccc(S(=O)(=O)c2cccc(C(F)(F)F)c2)cn1 for me?
1270

Can you look up the measured IC50 of CS(=O)(=O)c1cc(C(=O)NCc2cccc(S(=O)(=O)c3cccc(C(F)(F)F)c3)c2)cc(C(F)(F)F)n1 for me?
2050

Can you look up the measured IC50 of O=C(NCc1ccc(S(=O)(=O)c2cccc(C(F)(F)F)c2)cn1)c1ccc(F)c(Cl)c1 for me?
1540

====

# study.system: CaV2.2 (Homo sapiens, UniProt Q00975)
# Construct: expressed in transfected cells; host or cells: unnamed doxycycline-inducible cell line
# Sequence (Q00975 whole entry): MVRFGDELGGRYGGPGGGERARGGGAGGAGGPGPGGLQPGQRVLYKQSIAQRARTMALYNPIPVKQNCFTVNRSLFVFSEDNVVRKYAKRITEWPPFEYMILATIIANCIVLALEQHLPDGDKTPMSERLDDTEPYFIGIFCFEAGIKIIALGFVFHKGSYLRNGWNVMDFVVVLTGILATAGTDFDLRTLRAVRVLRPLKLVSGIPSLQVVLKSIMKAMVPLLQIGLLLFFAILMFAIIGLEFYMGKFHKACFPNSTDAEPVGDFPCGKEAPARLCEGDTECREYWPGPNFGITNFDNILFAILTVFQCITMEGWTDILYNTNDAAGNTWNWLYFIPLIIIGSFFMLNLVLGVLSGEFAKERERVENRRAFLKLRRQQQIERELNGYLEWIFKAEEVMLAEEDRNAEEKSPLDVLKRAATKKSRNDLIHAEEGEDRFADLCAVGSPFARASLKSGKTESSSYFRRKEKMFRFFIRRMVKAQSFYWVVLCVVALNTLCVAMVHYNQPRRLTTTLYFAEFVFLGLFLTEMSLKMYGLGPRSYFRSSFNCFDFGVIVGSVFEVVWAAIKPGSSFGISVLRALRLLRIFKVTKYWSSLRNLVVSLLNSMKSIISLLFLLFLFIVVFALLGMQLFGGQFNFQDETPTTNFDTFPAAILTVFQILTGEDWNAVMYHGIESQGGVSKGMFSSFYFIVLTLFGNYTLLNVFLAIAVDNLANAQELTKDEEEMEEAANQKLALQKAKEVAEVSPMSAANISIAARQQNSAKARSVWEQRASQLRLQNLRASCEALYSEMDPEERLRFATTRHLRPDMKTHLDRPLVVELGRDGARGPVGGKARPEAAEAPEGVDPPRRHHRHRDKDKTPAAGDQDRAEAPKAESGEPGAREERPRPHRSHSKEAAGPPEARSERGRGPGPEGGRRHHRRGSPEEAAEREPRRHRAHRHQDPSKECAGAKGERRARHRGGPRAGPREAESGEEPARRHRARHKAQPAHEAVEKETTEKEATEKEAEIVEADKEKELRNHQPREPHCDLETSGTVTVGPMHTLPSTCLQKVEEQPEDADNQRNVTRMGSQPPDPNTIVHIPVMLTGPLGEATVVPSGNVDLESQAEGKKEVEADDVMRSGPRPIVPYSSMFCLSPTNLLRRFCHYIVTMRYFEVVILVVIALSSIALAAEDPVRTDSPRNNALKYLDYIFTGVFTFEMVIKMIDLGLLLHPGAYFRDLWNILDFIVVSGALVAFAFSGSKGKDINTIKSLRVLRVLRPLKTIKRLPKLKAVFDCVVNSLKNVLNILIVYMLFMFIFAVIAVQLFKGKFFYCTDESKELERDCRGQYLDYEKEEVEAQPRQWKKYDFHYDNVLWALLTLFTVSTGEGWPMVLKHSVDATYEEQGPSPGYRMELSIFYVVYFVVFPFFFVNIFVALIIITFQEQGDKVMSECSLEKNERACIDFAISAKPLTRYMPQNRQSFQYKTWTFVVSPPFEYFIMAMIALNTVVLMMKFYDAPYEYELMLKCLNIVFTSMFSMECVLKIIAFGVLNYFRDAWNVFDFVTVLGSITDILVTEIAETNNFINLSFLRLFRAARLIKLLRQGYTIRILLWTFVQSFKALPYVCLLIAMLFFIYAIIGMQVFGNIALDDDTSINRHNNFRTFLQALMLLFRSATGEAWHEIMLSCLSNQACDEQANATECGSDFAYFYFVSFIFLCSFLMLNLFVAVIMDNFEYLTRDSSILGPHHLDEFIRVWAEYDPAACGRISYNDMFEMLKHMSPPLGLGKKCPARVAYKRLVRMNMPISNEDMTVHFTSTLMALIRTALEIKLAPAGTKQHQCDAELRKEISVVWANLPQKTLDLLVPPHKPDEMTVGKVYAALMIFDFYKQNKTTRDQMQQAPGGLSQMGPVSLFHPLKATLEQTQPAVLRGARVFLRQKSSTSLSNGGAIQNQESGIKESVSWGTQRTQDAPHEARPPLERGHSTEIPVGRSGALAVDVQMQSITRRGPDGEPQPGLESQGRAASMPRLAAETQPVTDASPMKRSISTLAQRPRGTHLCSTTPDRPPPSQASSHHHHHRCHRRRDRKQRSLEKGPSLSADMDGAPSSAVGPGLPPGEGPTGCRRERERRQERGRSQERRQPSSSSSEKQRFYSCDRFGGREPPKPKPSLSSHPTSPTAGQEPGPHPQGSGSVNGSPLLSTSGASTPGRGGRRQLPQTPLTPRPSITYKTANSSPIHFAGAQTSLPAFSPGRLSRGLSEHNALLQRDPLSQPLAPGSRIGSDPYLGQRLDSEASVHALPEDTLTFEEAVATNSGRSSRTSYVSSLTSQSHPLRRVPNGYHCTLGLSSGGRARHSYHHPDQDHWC
# Sequence (P54284 whole entry partner): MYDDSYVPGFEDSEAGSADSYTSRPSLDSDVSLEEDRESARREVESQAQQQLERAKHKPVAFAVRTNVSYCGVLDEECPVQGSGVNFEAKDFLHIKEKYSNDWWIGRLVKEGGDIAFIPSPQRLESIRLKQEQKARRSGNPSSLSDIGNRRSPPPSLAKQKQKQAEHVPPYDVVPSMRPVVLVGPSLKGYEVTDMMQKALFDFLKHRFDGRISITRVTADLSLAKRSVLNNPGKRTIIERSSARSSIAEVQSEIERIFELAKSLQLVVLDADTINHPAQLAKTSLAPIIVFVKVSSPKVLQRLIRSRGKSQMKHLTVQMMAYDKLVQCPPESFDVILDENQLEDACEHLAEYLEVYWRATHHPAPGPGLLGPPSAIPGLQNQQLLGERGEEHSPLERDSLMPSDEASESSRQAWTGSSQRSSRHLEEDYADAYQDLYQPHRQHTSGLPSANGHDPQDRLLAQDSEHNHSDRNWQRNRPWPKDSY
# Sequence (P54289 25-946 partner limits assumed): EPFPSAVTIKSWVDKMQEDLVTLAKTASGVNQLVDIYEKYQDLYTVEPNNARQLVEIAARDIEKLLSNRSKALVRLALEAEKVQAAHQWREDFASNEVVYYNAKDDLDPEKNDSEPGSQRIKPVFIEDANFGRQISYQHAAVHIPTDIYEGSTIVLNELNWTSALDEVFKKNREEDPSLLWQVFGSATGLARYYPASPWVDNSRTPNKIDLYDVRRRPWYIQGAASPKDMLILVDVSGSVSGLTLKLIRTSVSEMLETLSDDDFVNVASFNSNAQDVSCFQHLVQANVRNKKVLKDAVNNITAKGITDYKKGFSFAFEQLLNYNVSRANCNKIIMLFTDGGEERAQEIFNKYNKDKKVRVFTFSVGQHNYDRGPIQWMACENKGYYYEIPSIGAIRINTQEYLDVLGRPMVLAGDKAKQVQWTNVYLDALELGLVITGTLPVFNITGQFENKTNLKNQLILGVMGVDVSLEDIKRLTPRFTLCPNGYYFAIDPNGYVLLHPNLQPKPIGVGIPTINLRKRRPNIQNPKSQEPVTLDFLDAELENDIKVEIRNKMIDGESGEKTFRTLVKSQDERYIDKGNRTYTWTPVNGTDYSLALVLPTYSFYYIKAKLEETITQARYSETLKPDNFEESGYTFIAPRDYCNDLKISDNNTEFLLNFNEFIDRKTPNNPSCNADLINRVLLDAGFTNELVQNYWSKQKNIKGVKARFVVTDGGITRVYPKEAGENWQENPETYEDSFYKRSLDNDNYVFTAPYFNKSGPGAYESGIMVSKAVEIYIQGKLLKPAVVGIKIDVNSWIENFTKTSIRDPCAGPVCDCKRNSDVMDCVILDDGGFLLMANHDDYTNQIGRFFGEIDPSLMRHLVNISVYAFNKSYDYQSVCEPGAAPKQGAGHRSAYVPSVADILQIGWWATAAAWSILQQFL
# Sequence (P54289 947-1103 partner limits assumed): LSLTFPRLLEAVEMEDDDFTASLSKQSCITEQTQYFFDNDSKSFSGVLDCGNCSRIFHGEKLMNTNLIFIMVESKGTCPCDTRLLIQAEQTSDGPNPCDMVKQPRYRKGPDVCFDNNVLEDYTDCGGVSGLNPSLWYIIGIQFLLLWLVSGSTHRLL
# method.summary: High-throughput CaV2.2/Kir2.3 FLIPR fluorescent assay
# Type: cell-based
# measurement.parameters: Table 4; Fluo-4 FLIPR; closed or inactivated state not stated; read-out: FLIPR data CaV2.2
assay.endpoint: pIC50
Expect pIC50 as a plain number equal to -log10 of the molar concentration.

Can you look up the measured pIC50 of O=C(NCc1ccccc1S(=O)(=O)c1cccc(C(F)(F)F)c1)c1ccc(F)c(Cl)c1 [Compound 52] for me?
6.13

Can you look up the measured pIC50 of O=C(NCc1ccc(S(=O)(=O)c2cccc(C(F)(F)F)c2)cc1)[C@@H]1C[C@@H](C2CCCCC2)CN1 [Compound 72] for me?
6.12

Can you look up the measured pIC50 of O=C(NCc1cccc(S(=O)(=O)c2cccc(C(F)(F)F)c2)c1)c1ccc(C(F)(F)F)nc1 [Compound 19] for me?
6.31

Can you look up the measured pIC50 of O=C(NCc1ccc(S(=O)(=O)c2cccc(C(F)(F)F)c2)cc1)C1CCCN1 (stereo in doubt) [Compound 77] for me?
6.16

Can you look up the measured pIC50 of CS(=O)(=O)c1cc(C(=O)NCc2ccccc2S(=O)(=O)c2cccc(C(F)(F)F)c2)cc(C(F)(F)F)n1 [Compound 42] for me?
6.19

Can you look up the measured pIC50 of O=C(NCc1ccc(S(=O)(=O)c2cccc(C(F)(F)F)c2)cn1)[C@H]1CCCN1 [Compound 108] for me?
5.59

Can you look up the measured pIC50 of NC1(C(=O)NCc2ccc(S(=O)(=O)c3cccc(C(F)(F)F)c3)cc2)CCC1 [Compound 66] for me?
5.71

Can you look up the measured pIC50 of CN1CCCCC1C(=O)NCc1ccc(S(=O)(=O)c2cccc(C(F)(F)F)c2)cc1 (stereo not drawn) [Compound 84] for me?
5.64

Can you look up the measured pIC50 of CS(=O)(=O)c1nc(C(F)(F)F)ccc1C(=O)NCc1ccc(S(=O)(=O)c2cccc(C(F)(F)F)c2)cn1 [Compound 92] for me?
5.63

Can you look up the measured pIC50 of O=C1c2ccc(C(F)(F)F)nc2CN1Cc1ccc(S(=O)(=O)c2cccc(C(F)(F)F)c2)cc1 [Compound 56] for me?
6.51

Can you look up the measured pIC50 of O=C(NCc1cccc(S(=O)(=O)c2cccc(C(F)(F)F)c2)c1)c1cnc(C(F)(F)F)nc1 [Compound 26] for me?
6.24

Can you look up the measured pIC50 of O=C(NCc1cccc(S(=O)(=O)c2cccc(C(F)(F)F)c2)c1)c1ccnn1CC(F)(F)F [Compound 29] for me?
6.47

Can you look up the measured pIC50 of O=C(NCc1ccccc1S(=O)(=O)c1cccc(C(F)(F)F)c1)c1cn2cc(C(F)(F)F)ccc2n1 [Compound 51] for me?
5.91

Can you look up the measured pIC50 of CO[C@H]1CN[C@@H](C(=O)NCc2ccc(S(=O)(=O)c3cccc(C(F)(F)F)c3)cc2)C1 [Compound 62] for me?
6.21

Can you look up the measured pIC50 of O=C(CCC(F)(F)F)NCc1ccc(S(=O)(=O)c2cccc(C(F)(F)F)c2)cc1 [Compound 53] for me?
6.47
